Test system: Neutrophil
Assay summary: Inhibition of FMLP/CB-stimulated superoxide production in human neutrophils preincubated for 5 mins before FMLP/CB treatment by spectrophotometry
Type: functional, cell-based

Smi | IC50
CO[C@]1(CC[C@@H](C)CO[C@@H]2O[C@H](CO)[C@@H](O)[C@H](O)[C@H]2O)O[C@H]2C[C@H]3[C@@H]4C[C@H](O[C@@H]5OC[C@@H](O)[C@H](O[C@@H]6OC[C@@H](O)[C@H](O)[C@H]6O)[C@H]5O)[C@H]5C[C@@H](O)CC[C@]5(C)[C@H]4CC[C@]3(C)[C@H]2[C@@H]1C | > 10 µM
C[C@H](C/C=C1/O[C@H]2C[C@H]3[C@@H]4C[C@H](O[C@@H]5O[C@H](C)[C@@H](O)[C@H](O[C@@H]6OC[C@@H](O)[C@H](O)[C@H]6O)[C@H]5O)[C@H]5C[C@@H](O)CC[C@]5(C)[C@H]4CC[C@]3(C)[C@H]2[C@@]1(C)O)CO[C@@H]1O[C@H](CO)[C@@H](O)[C@H](O)[C@H]1O | > 10 µM
C[C@H]1CO[C@@]2(O[C@H]3C[C@H]4[C@@H]5C[C@H](O[C@@H]6O[C@H](C)[C@@H](O)[C@H](O[C@@H]7OC[C@@H](O)[C@H](O)[C@H]7O)[C@H]6O)[C@H]6C[C@@H](O)CC[C@]6(C)[C@H]5CC[C@]4(C)[C@H]3[C@@H]2C)[C@@H](O)C1 | > 10 µM

From: ChEMBL document CHEMBL3352510
